Reported EC50 values for a set of compounds
# tested target: APOL1 G2 (Homo sapiens, UniProt O14791, DEL388-389)
# test description: APOL1 G2 HEK293 rescue of cell death caused by overexpression of APOL1 (CellTiter-Glo)
# run parameters: HEK293/T-REx APOL1 G2 clone #2, doxycycline induction, 17 hours, CellTiter-Glo luminescence; reversal of cell death; geometric mean of at least 2 assay runs
Put down the number, then write its unit next to it.

INSERT INTO measurements (compound, readout_name, assay_result) VALUES
  ('C[C@@H]1CN(C2CCc3ccc(Cl)cc3C2)C[C@H]1COc1ccc(S(C)(=O)=O)cc1 (stereo partly shown) [Compound 14]', 'EC50', '544 nM'),
  ('C[C@@H]1C[C@H](COc2ccc(S(C)(=O)=O)cc2)CN1C1Cc2ccc(Cl)cc2C1 (single isomer, unassigned) [Compound 3]', 'EC50', '398 nM'),
  ('Cc1cc(OC[C@@H]2CN(CCc3cc(Cl)cc(C#N)c3)C[C@H]2C)ccc1S(C)(=O)=O', 'EC50', '28.6 nM');

Now look at this one.
Form: Entry = C[C@H]1CN(CCc2cccc(Cl)c2)C[C@@H]1COc1ccc(S(C)(=O)=O)cc1 | System = APOL1 G2 (Homo sapiens, UniProt O14791, DEL388-389) | EC50 = ____
2070 nM

* * *

# tested target: APOL1 G2 (Homo sapiens, UniProt O14791, DEL388-389)
# Sequence (O14791 with tags, fused parts or gaps DEL388-389): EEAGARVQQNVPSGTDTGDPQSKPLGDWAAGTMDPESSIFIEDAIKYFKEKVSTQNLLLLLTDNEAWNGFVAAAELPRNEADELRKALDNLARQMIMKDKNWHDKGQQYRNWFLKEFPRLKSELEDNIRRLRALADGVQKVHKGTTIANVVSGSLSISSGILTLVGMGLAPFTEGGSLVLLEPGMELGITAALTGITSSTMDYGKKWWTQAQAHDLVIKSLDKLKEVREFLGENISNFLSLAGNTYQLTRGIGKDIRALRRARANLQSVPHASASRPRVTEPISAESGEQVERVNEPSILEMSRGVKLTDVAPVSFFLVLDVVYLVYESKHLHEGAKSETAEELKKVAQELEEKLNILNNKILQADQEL
# test description: APOL1 G2 HEK293 rescue of cell death caused by overexpression of APOL1 (CellTiter-Glo)
# run parameters: HEK293/T-REx APOL1 G2 clone #2, doxycycline induction, 17 hours, CellTiter-Glo luminescence; reversal of cell death; geometric mean of at least 2 assay runs
# Description: A HEK293 clonal cell line overexpressing APOL1 G2 (HEK293/T-REx APOL1 G2/clone #2) was maintained in 1×DMEM-GlutaMax (Gibco, 10569-010) media with 10% tetracycline-free FBS (Takara Bio USA, 631101), 5 μg/mL Blasticidin (Gibco, A1113903), and 100 μg/mL Zeocin (Invitrogen, R25001) in T75 flasks. […] The suspension was gently mixed, and cells were counted using a Countess Cell Counting Chamber (Invitrogen). […] Luminescence was measured on an Envision plate reader. […]
Lab note - cut at 400 nM for EC50: yes if strictly below, no if not.

INSERT INTO assay_data (molecule, label) VALUES
  ('C[C@@H]1C[C@H](COc2ccc(S(C)(=O)=O)cc2)CN1C1Cc2ccc(Cl)cc2C1 (single isomer, unassigned) [Compound 2]', 'no'),
  ('CS(=O)(=O)c1ccc(OC[C@@H]2CCCN(C3CCc4ccc(Cl)cc4C3)C2)cc1 (single isomer, unassigned) [Compound 133]', 'no'),
  ('CS(=O)(=O)c1ccc(OC[C@@H]2CN(C(CO)Cc3cccc(Cl)c3)CCN2)cc1 (single isomer, unassigned) [Compound 118]', 'no'),
  ('CS(=O)(=O)c1ccc(OCC2C[C@@H](CO)N(CCc3cccc(Cl)c3)C2)cc1 (single isomer, unassigned) [Compound 124]', 'no'),
  ('C[C@@H]1C[C@H](COc2ccc(S(C)(=O)=O)nc2)CN1CC(O)c1cccc(C#N)c1 (single isomer, unassigned) [Compound 93]', 'no');

Field: below-cutoff. Rule: recorded EC50 strictly less than 400 nM. Subject: CC(C(O)c1cc(Cl)cc(C#N)c1)N1C[C@@H](COc2ccc(S(C)(=O)=O)cc2)[C@H](C)C1 (single isomer, unassigned) [Compound 103]
no

Field: below-cutoff. Rule: recorded EC50 strictly less than 400 nM. Subject: C[C@@H]1C[C@H](COc2ccc(S(=O)(=O)CCS(C)(=O)=O)cc2)CN1C1CCc2ccc(Cl)cc2C1 (single isomer, unassigned) [Compound 50]
yes

Field: below-cutoff. Rule: recorded EC50 strictly less than 400 nM. Subject: C[C@@H]1CN(CC(O)c2cccc(C#N)c2)C[C@H]1COc1ccc(S(C)(=O)=O)nc1 (single isomer, unassigned) [Compound 105]
no

Field: below-cutoff. Rule: recorded EC50 strictly less than 400 nM. Subject: C[C@@H]1CN(CCc2cccc(C#N)c2)C[C@H]1COc1ccc(S(C)(=O)=NCCS(C)(=O)=O)cc1 (some centres unmarked) [Compound 68]
yes

Field: below-cutoff. Rule: recorded EC50 strictly less than 400 nM. Subject: C[C@@H]1C[C@H](COc2ccc(S(C)(=O)=O)cc2)CN1C1CCc2c(Cl)cccc2C1 (single isomer, unassigned) [Compound 139]
yes

Field: below-cutoff. Rule: recorded EC50 strictly less than 400 nM. Subject: C[C@@H]1C[C@H](COc2ccc(S(=O)(=O)CCCS(C)(=O)=O)cc2)CN1C1CCc2ccc(Cl)cc2C1 (single isomer, unassigned) [Compound 54]
yes

Field: below-cutoff. Rule: recorded EC50 strictly less than 400 nM. Subject: CC(c1ccc(OC[C@@H]2CN(CCc3cccc(Cl)c3)CCN2)cc1)S(C)(=O)=O (some centres unmarked) [Compound 140]
no

Field: below-cutoff. Rule: recorded EC50 strictly less than 400 nM. Subject: Cc1cc(OC[C@@H]2CN(CCc3cccc(C#N)c3)C[C@H]2C)ccc1S(C)(=O)=O [Compound 83]
yes

Field: below-cutoff. Rule: recorded EC50 strictly less than 400 nM. Subject: CC(C(O)c1cc(Cl)cc(C#N)c1)N1C[C@@H](COc2ccc(S(C)(=O)=O)cc2)[C@H](C)C1 (single isomer, unassigned) [Compound 100]
no

Field: below-cutoff. Rule: recorded EC50 strictly less than 400 nM. Subject: CC(c1ccc(OC[C@@H]2CN(CCc3cccc(Cl)c3)CCN2)cc1)S(C)(=O)=O (single isomer, unassigned) [Compound 141]
yes

Field: below-cutoff. Rule: recorded EC50 strictly less than 400 nM. Subject: CC(C(O)c1cc(Cl)cc(C#N)c1)N1C[C@@H](COc2ccc(S(C)(=O)=O)cc2)[C@H](C)C1 (single isomer, unassigned) [Compound 102]
no

Field: below-cutoff. Rule: recorded EC50 strictly less than 400 nM. Subject: C[C@@H]1CN(CCc2cc(Cl)cc(C#N)c2)C[C@H]1COc1ccc(S(=O)(=O)C2(C)COC2)cc1 [Compound 13]
yes

Field: below-cutoff. Rule: recorded EC50 strictly less than 400 nM. Subject: CN=S(C)(=O)c1ccc(OC[C@@H]2CN(CCc3cccc(C#N)c3)C[C@H]2C)cn1 (single isomer, unassigned) [Compound 72]
yes

Field: below-cutoff. Rule: recorded EC50 strictly less than 400 nM. Subject: C[C@@H]1C[C@H](COc2ccc(S(=O)(=O)CCCS(C)(=O)=O)cc2)CN1C1CCc2ccc(C#N)cc2C1 (single isomer, unassigned) [Compound 35]
yes

Field: below-cutoff. Rule: recorded EC50 strictly less than 400 nM. Subject: Cc1cc(OC[C@@H]2CN(CCc3cc(Cl)cc(C#N)c3)CCN2)ccc1S(C)(=O)=O [Compound 112]
yes

Field: below-cutoff. Rule: recorded EC50 strictly less than 400 nM. Subject: C[C@@H]1C[C@H](COc2ccc(S(C)(=O)=O)cc2)CN1C1Cc2ccc(Cl)cc2C1 (single isomer, unassigned) [Compound 4]
no

Field: below-cutoff. Rule: recorded EC50 strictly less than 400 nM. Subject: C[C@@H]1CN(CCc2cc(Cl)cc(C#N)c2)C[C@H]1COc1ccc(C2(S(C)(=O)=O)COC2)cc1 [Compound 78]
yes

Field: below-cutoff. Rule: recorded EC50 strictly less than 400 nM. Subject: CS(=O)(=O)C1(c2ccc(OC[C@@H]3CN(CCc4cccc(Cl)c4)CCN3)cc2)COC1 [Compound 107]
yes

Field: below-cutoff. Rule: recorded EC50 strictly less than 400 nM. Subject: C[C@@H]1CN(CCc2cccc(C#N)c2)C[C@H]1COc1ccc(S(C)(=O)=O)c(C#N)c1 [Compound 86]
yes

Field: below-cutoff. Rule: recorded EC50 strictly less than 400 nM. Subject: CC(=O)N1CC(S(=O)(=O)c2ccc(OC[C@@H]3CN(CCc4cccc(Cl)c4)CCN3)cc2)C1 [Compound 109]
yes

Every entry's value here was drawn from patent US20260055083A1.
